# TEST PROTOCOL: in vitro
# Format: in vitro ADME
# CONDITION PARAMETERS: human, microsomes, human liver microsomes
Hi there, I'd appreciate the recorded microsomal CLint for every entry that follows.

So, O=C(CCC1CCCCC1)Nc1ccc(Nc2nc(N3CCNCC3)c3ccccc3n2)cc1 ? Its microsomal CLint was > 117 µL/min/mg

So, Cc1cc(N(C)C)nc(Nc2ccc(NC(=O)Nc3ccc(F)cc3)cc2)n1 ? Its microsomal CLint was 26 µL/min/mg

----------
# TEST PROTOCOL: physchem
# Assay type: physicochemical
# CONDITION PARAMETERS: shake-flask method; read-out: eLogD
Hi there, I'd appreciate the recorded logD for every entry that follows.
Write the value as a bare number.

So, O=C(Nc1ccc(F)cc1)Nc1ccc(Nc2nc(N3CCNCC3)c3ccccc3n2)cc1 ? Its logD was 2.2

So, Cc1cc(N(C)C)nc(Nc2ccc(NC(=O)Nc3ccc(F)cc3)cc2)n1 ? Its logD was 3

So, O=C(CCC1CCCCC1)Nc1ccc(Nc2nc(N3CCNCC3)c3ccccc3n2)cc1 ? Its logD was 3.2
